- assayed_target: T1, purified, recombinant parvovirus B19 capsid proteins VP1 and VP2 (VP1-VP2) (human parvovirus B19, UniProt P07299 1-781; P07299 1-554)
- T1 construct: Surrogate target: partially purified/purified recombinant VP1 + VP2 preparation; Made by methods of US 5,498,413 or WO 91/12269
- experimental_details: phage ELISA, constant phage against decreasing VP1-VP2 coat; normalized signal interpolated at 1:10 dilution of VP1-VP2
Positions of bridges follow the written chain, without caps; N, C: chain ends. No end group written: not given here.
What relative binding was measured for each of the following?

Study these solved cases before continuing.
binder: FCWLWPAHSCH (peptide, not shown: large carriers, disulfide 2-10 (inferred); also: displayed on M13 phage, coat protein fusion and flanking residues not given here, Tested as phage isolate displaying the peptide (TN9 library); The synthetic peptide form is a separate molecule; also called TN9 isolate H03) [H03-TN9 phage isolate]
relative binding: 85
//
binder: FSCLWFPFCPD (peptide, not shown: large carriers, disulfide 3-9 (inferred); also: displayed on M13 phage, coat protein fusion and flanking residues not given here, Tested as phage isolate displaying the peptide (TN7 library)) [TN7 isolate A12]
relative binding: 28

Return reported relative binding values for all items listed beneath this line.
1. LFCSFWYNCDA (peptide, not shown: large carriers, disulfide 3-9 (inferred); also: displayed on M13 phage, coat protein fusion and flanking residues not given here, Tested as phage isolate displaying the peptide (TN7 library)) [TN7 isolate D11]
2. FCWLWPSSDCF (peptide, not shown: large carriers, disulfide 2-10 (inferred); also: displayed on M13 phage, coat protein fusion and flanking residues not given here, Tested as phage isolate displaying the peptide (TN9 library)) [TN9 isolate D01]

35
36
